pIC50: −log10 of the molar value.
Quick record: pIC50, PI3K α (Homo sapiens, UniProt P42336).

Example cases with answers are listed next.
[[record]]
molecule = "C[C@H](NC(=O)c1c(N)nn2cccnc12)c1cc2cccc(CNCC3CCCO3)c2c(=O)n1-c1ccccc1 (some centres unmarked)"
test_system = "PI3K α (Homo sapiens, UniProt P42336)"
measured_property = "pIC50"
result = "< 5.00"

[[record]]
molecule = "COc1cc(-c2cccc3cc([C@H](C)NC(=O)c4c(N)nn5cccnc45)n(-c4cccc(F)c4)c(=O)c23)ccn1"
test_system = "PI3K α (Homo sapiens, UniProt P42336)"
measured_property = "pIC50"
result = "5.00 to 6.00"

[[record]]
molecule = "COc1ccc(-c2cnc(N)c(C(=O)N[C@@H](C)c3cc4cccc(Cl)c4c(=O)n3-c3ccccc3)n2)cc1OC"
test_system = "PI3K α (Homo sapiens, UniProt P42336)"
measured_property = "pIC50"
result = "5.00 to 6.00"

[[record]]
molecule = "C[C@H](NC(=O)c1nccnc1N)c1cc2cccc(-c3cnn(C)c3)c2c(=O)n1-c1ccccc1"
test_system = "PI3K α (Homo sapiens, UniProt P42336)"
measured_property = "pIC50"
result = "< 5.00"

[[record]]
molecule = "C[C@H](NC(=O)c1c(N)nn2cccnc12)c1cc2cccc(Cl)c2c(=O)n1C"
test_system = "PI3K α (Homo sapiens, UniProt P42336)"
measured_property = "pIC50"
result = "5.00 to 6.00"

[[record]]
molecule = "C[C@H](NC(=O)c1c(N)nn2cccnc12)c1cc2cccc(-c3ccccc3)c2c(=O)n1-c1ccccc1"
test_system = "PI3K α (Homo sapiens, UniProt P42336)"
measured_property = "pIC50"
result = "5.00 to 6.00"

[[record]]
molecule = "CC(C)Oc1ccc(-c2cnc(N)c(C(=O)N[C@@H](C)c3cc4cccc(Cl)c4c(=O)n3-c3ccccc3)n2)cc1Cl"
test_system = "PI3K α (Homo sapiens, UniProt P42336)"
measured_property = "pIC50"
result = "< 5.00"

[[record]]
molecule = "C[C@H](NC(=O)c1c(N)nn2cccnc12)c1cc2cccc(C#CCNC(=O)C3CC(=O)CC(=O)C3)c2c(=O)n1-c1ccccc1"
test_system = "PI3K α (Homo sapiens, UniProt P42336)"
measured_property = "pIC50"
result = "5.00 to 6.00"


Could you share what pIC50 was measured for `C[C@H](NC(=O)c1c(N)nn2cccnc12)c1cc2cccc(CN(C)C)c2c(=O)n1-c1ccccc1` , tested on PI3K α (Homo sapiens, UniProt P42336)? < 5.00

Could you share what pIC50 was measured for `COC(=O)c1ncsc1-c1cccc2cc([C@H](C)NC(=O)c3c(N)nn4cccnc34)n(-c3ccccc3)c(=O)c12` , tested on PI3K α (Homo sapiens, UniProt P42336)? < 5.00

Could you share what pIC50 was measured for `C[C@H](NC(=O)c1nc(-c2cccc(NS(C)(=O)=O)c2)cnc1N)c1cc2cccc(Cl)c2c(=O)n1C1CC1` , tested on PI3K α (Homo sapiens, UniProt P42336)? 5.00 to 6.00

###

Quick record: IC50, PI3K γ (Homo sapiens).

[[record]]
compound = "Nc1nccnc1C(=O)N1CCC[C@H]1c1cc2cccc(Cl)c2c(=O)n1-c1ccccc1"
result = "> 10000 nM"


Field: next compound
Could you share what IC50 was measured for `CC(C)NS(=O)(=O)c1cccc(-c2cnc(N)c(C(=O)N[C@@H](C)c3cc4cccc(Cl)c4c(=O)n3-c3ccccc3)n2)c1` , tested on PI3K γ (Homo sapiens)? 100 to 1000 nM

Origin of values: patent US8940742B2
